- SYSTEM_TESTED: Histone-lysine N-methyltransferase EHMT2 (Homo sapiens) (UniProt Q96KQ7)
- Sequence (Q96KQ7 913-1193 limits assumed): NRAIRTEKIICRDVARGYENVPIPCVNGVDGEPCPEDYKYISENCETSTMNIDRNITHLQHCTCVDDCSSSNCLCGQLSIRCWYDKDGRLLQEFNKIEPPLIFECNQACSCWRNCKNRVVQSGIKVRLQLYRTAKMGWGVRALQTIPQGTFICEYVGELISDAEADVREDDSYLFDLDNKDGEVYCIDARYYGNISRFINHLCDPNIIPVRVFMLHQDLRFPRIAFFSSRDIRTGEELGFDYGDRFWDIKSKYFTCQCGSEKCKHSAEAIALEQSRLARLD
- EXPERIMENT_DESCRIPTION: qHTS Assay for Inhibitors of Histone Lysine Methyltransferase G9a; further: nearly all actives have a fitted effect of over 75% in size
- ASSAY_CONTEXT: G9a H3K9 monomethylation, AlphaScreen, 2 h; series mostly up to 59 µM
Hit rate of the full screen: of about 350,000 compounds, about 31,000 (8.9%) were called active. Inconclusive results (about 15%) are left out. The call rests on the fitted dose curve; in most records, active means well fitted inhibition curve with a large enough effect; inconclusive means small, poorly fitted or top-dose-only effect; inactive means no such curve, though single readings can be large or run the other way. This is one part of a sample in which actives are shown more often than they occur.
Outcome codes: active, inactive

COMPOUND	QUALITATIVE_LABEL
Cc1ccc(-c2cn3cc(C)ccc3n2)cc1	inactive
COc1ccccc1N1CCN(c2ccc(=O)n(CC(=O)NCc3ccc(OC(C)C)cc3)n2)CC1	inactive
C=CCOc1ccc(/C=N/NC(=O)C(C)Sc2ccccn2)cc1OCC (configuration not stated)	inactive
Cc1cc(C)c(NC(=O)CS(=O)CC(=O)Nc2cccnc2)c(C)c1 (configuration not stated)	inactive
CC1CCC2CCCCC2N1C(=O)c1cc([N+](=O)[O-])cc([N+](=O)[O-])c1 (configuration not stated)	active
Cc1nc(SCCOc2ccc(Cl)cc2)[nH]c(=O)c1Cc1ccccc1	inactive
COc1ccc(-c2cc(C(F)(F)F)nc(SCC(=O)N(C)Cc3ccccc3)n2)cc1OC	inactive
COc1ccc(N2CCN(C(=O)CCc3nc(-c4ccc(C)cc4)no3)CC2)cc1	active
CS(=O)(=O)N1CCN=C1SCc1ccc(F)cc1	inactive
CCC(=O)N1CCc2cc(Br)cc(S(=O)(=O)NCc3ccc(Cl)cc3)c21	inactive
COC(=O)c1cc(C(=O)NC(C)C2CC3CCC2C3)cc([N+](=O)[O-])c1 (configuration not stated)	inactive
CSc1nc(-c2ccccc2Cl)nc2c1Cc1c(CO)cnc(C)c1O2	inactive
CCOC(=O)c1ccc(CSc2nnc3cc(C)c4ccccc4n23)cc1	inactive
O=C(NCc1ccc(Cl)cc1)C(=O)NCC1CCCN1S(=O)(=O)c1cccs1 (configuration not stated)	inactive
C#CCOc1ccccc1/C=C1/C(=O)ON=C1C	inactive
COc1ccc(-c2cn(-c3ccc(C)cc3)c(=O)n2CC(=O)Nc2ccc(OC)c(OC)c2)cc1	inactive
CCOc1cc(/C=C2\C(=N)N3N=C(C)SC3=NC2=O)ccc1OCCOc1ccccc1	inactive
C=CCOc1ccc(/C=C2/C(=O)ON=C2C)cc1OCC	active
Cc1ccc(-c2nc(-c3cccnc3)sc2CC(=O)Nc2ccc(C)c(Cl)c2)cc1	active
CCC(C(=O)Nc1cccc(-c2nc3cccnc3s2)c1C)c1ccccc1 (configuration not stated)	inactive
Cc1cc2nc(NC(=O)c3ccc(S(=O)(=O)N4CCOCC4)cc3)sc2cc1C	inactive
COc1ccccc1-n1c(-c2cc(-c3ccco3)[nH]n2)n[nH]c1=S	active

----------
- SYSTEM_TESTED: Histone-lysine N-methyltransferase EHMT2 (Homo sapiens)
- EXPERIMENT_DESCRIPTION: qHTS Assay for Inhibitors of Histone Lysine Methyltransferase G9a; further: nearly all actives have a fitted effect of over 75% in size
- ASSAY_CONTEXT: G9a H3K9 monomethylation, AlphaScreen, 2 h; series mostly up to 59 µM
Among all 350,000 compounds or so, about 31,000 (8.9%) were called active. Not shown: some 15% with an inconclusive outcome. Calls follow the shape of the dose curve; as a rule, active = well fitted inhibition curve with a large enough effect; inconclusive = small, poorly fitted or top-dose-only effect; inactive = no such curve, though single readings can be large or run the other way. Only a selection was taken, and actives are over-represented in it overall.
Labels: T for active, F for inactive

MOLECULE	QUALITATIVE_LABEL
O=C(COC(=O)c1ccc([N+](=O)[O-])cc1Cl)NC(=O)c1ccccc1	F
CCCC1OC23CCCCC2C(C#N)(C#N)C1(C#N)C(=N)O3 (configuration not stated)	T
Brc1ccc(C2=NCCC(c3ccccc3)O2)cc1 (configuration not stated)	F
COc1ccc(CCNc2nc(-c3ccc(F)cc3)cc(C(F)(F)F)n2)cc1OC	F
CCOc1ccc(NC(=O)CN(C)C(=O)c2c(C)noc2C)cc1OCC	F
Cc1ccc(C)c(NC(=O)CSC2=Nc3ccccc3N=C(c3ccc(F)cc3)C2)c1	F
CN(CC(=O)Nc1ccc(Cl)c(C(F)(F)F)c1)C(=O)CCC(=O)c1ccccc1	F
CN(CC(=O)Nc1ccccc1C(F)(F)F)C(=O)Cc1ccccc1F	T
CCOc1ccc(NC(=O)C2CC(=O)N=C(N)S2)cc1 (configuration not stated)	F
Brc1ccc(C2CC(c3ccccc3)=Nc3ccccc3N2)cc1 (configuration not stated)	T
Cc1cccc(NC(=O)c2sc(-c3ccccc3)nc2-c2ccc([N+](=O)[O-])cc2)c1	F
Cc1cccc(C)c1NC(=O)COC(=O)c1c(C)nn(-c2ccccc2)c1C	T
COc1ccc(CNC(=O)c2cc3c(=O)[nH]c4ccc(C)cc4c3s2)c(OC)c1	F
Cc1cc(=O)n(C)c(=O)n1CCCNc1ccccc1	T
Fc1ccccc1/C=C1\CCCC2=C1Nc1ncnn1C2c1ccccc1F (configuration not stated)	T
CC1=C(C(N)=O)C(c2ccc(Br)cc2)n2ncnc2N1 (configuration not stated)	F
COc1ccc(-c2cc(C(=O)N(C)CC(=O)Nc3ccccc3Cl)c3ccccc3n2)cc1OC	F
Cn1c(Nc2ccccc2)cc(=O)n(C)c1=O	F
Cc1ccc(S(=O)(=O)N2CCN(C(=O)CSc3cc(C)ccc3C)CC2)c(C)c1	F
Cc1cccc(C)c1NC(=O)CNC(=O)c1c(C)nn(-c2ccccc2)c1C	F
Cc1nc(-c2ccc([N+](=O)[O-])cc2)c(-c2ccccc2)o1	T
Cc1cccnc1CC(C)NC(=O)c1cc(COc2cncc(Cl)c2)on1 (configuration not stated)	F
